Tested on: K562
Protocol Summary: NCI tumour cell line growth inhibition, 48 h
Active and inactive are the calls of the source. Cut-off read from the data, not from the text of the source: active = GI50 up to about 1.1 µM and inactive = higher.
Would you mind answering with one of these outcomes? label 1 = active, label 0 = inactive

{"Compound": "C[C@@H]1Nc2cc(NC(=O)OCCF)nc(N)c2N=C1c1ccccc1", "Category Label": "label 1"}

Could you now look at the following compound, please?
Could you kindly confirm the outcome this assay logged for Cc1cc(-c2nc3c(O)cccc3s2)ccc1N ?
label 0

###

Test system: UACC-257
Protocol Summary: NCI tumour cell line growth inhibition, 48 h
Active and inactive are the calls of the source. Rule as the data show it: active = GI50 up to about 1.1 µM and inactive = higher.
Endpoint: GI50

// worked examples, GI50 included
{"Compound": "CO/N=C(\\C(=O)Nc1cncs1)c1csc(N)n1", "GI50": "> 10 µM (inactive)"}
{"Compound": "Cn1c2c(c3ccccc31)CCN=C2C1CCCOC1=O (centres undefined)", "GI50": "> 100 µM (inactive)"}
{"Compound": "CCOP(=S)(OCC)Oc1ccc2c(c1)OC(=O)C1(Cl)C2(C)C2(Cl)C(=O)Oc3cc(OP(=S)(OCC)OCC)ccc3C12C (centres undefined)", "GI50": "17.7 µM (inactive)"}

Here is another compound to look at.
Please give the measured GI50 for this compound: Nc1ccc2c(c1)C(=O)c1ccccc1-2
> 100 µM (inactive)

###

Test system: SK-MEL-2
Protocol Summary: NCI tumour cell line growth inhibition, 48 h
Activity calls are given as the source filed them. Cut-off read from the data, not from the text of the source: active = GI50 up to about 1.1 µM and inactive = higher.
Would you mind answering with one of these outcomes? true = active, false = inactive

Some solved cases for reference:
{"Compound": "C=CCn1c(=O)n(CC=C)c(=O)n(CC=C)c1=O", "Target Or System": "SK-MEL-2", "Category Label": "false"}
{"Compound": "COc1cccc(/C=N/n2c(-c3ccccc3)n[nH]c2=O)c1", "Target Or System": "SK-MEL-2", "Category Label": "false"}

Could you kindly confirm the outcome this assay logged for CCCCn1cnnc1NS(=O)(=O)c1cc(C)c(Cl)cc1SCC(=O)O ?
false

Same question for COC(=O)C1=C(C(=O)OC)C2(c3ccccc3)OC1(c1ccccc1)c1cc3ccccc3cc12 please.
false

Same question for COC1=NCc2ccccc2-c2ccccc21 please.
false

Same question for CCC(NC(C)c1ccccc1)C(O)c1ccc(OCc2ccccc2)c(OCc2ccccc2)c1 (stereo not drawn) please.
false

Same question for C[C@@H]1C[C@H]2CC[C@H](O2)[C@H](C)C(=O)O[C@@H](C)C[C@@H]2CC[C@@H](O2)[C@@H](C)C(=O)O[C@H](C)C[C@H]2CC[C@H](O2)[C@H](C)C(=O)O[C@@H](C)C[C@@H]2CC[C@@H](O2)[C@@H](C)C(=O)O1 please.
true

Same question for CN1CC=C(OP(=O)(NCc2ccccc2)N(CCCl)CCCl)CC1 (stereo not drawn) please.
false

Same question for O=[N+]([O-])/C(Cl)=C(\Sc1ccccc1)C(Cl)=C(Cl)Cl please.
false

Same question for C/C(CC(O)(C(F)(F)F)C(F)(F)F)=N\O please.
false

Same question for CCCC1C(CC)C(NC)C(C#N)(C#N)C1(C#N)C#N (stereo not drawn) please.
false

Same question for O=C(O)CCC(NC(=O)c1ccc(CNc2nc3cc(C(F)(F)F)ccc3nc2C(=O)O)cc1)C(=O)O (stereo not drawn) please.
false

Same question for COc1ccc(/C=C/c2cc(OC)c(OCc3ccccc3)c(OC)c2)cc1 please.
false

###

Tested on: UACC-62
Protocol Summary: NCI tumour cell line growth inhibition, 48 h
Activity calls are given as the source filed them. No stated cut-off is given here; in the data, active = GI50 up to about 1.1 µM and inactive = higher.
Below is a list of entries, each paired with its recorded GI50 value.

// worked examples, GI50 included
{"Compound": "CC(C)=C[C@@H]1O[C@H](O)[C@@H]([C@H]2CC[C@@]3(C)[C@@H]4CC[C@H]5C(C)(C)C(=O)CC[C@@]56C[C@@]46CC[C@]23C)[C@@H]1O", "GI50": "18.1 µM (inactive)"}
{"Compound": "O=C(CCc1ccc(O)cc1)NCCc1cccc(OCc2ccccc2)c1", "GI50": "14.1 µM (inactive)"}

Lab note: need GI50 for C#CCC1(C(=O)OCC)C(=O)c2ccccc2N(C)C1=O (centres undefined) on UACC-62, anyone have it?
> 100 µM (inactive)

Same question for C=C[C@]1(C)CC[C@]2(C)C(CC[C@@]3(C)C2C[C@H](O)[C@H](O)[C@@]3(C)O)C1 (some centres undefined) please.
> 100 µM (inactive)

Same question for Cc1cc(-c2nc3c(O)cccc3s2)ccc1N please.
12.2 µM (inactive)

Same question for C[C@@H]1Nc2cc(NC(=O)OCCF)nc(N)c2N=C1c1ccccc1 please.
34.8 µM (inactive)

Same question for Cc1ccc(SCC(OCn2cnc3c(Cl)nc(N)nc32)[C@H](C)F)cc1 (some centres undefined) please.
> 100 µM (inactive)

Same question for O=c1c(C(c2ccc([N+](=O)[O-])cc2)c2c(O)oc3ccccc3c2=O)c(O)oc2ccccc12 please.
> 100 µM (inactive)

Same question for C=CC(=O)NCCC(=O)OCn1cc(F)c(=O)[nH]c1=O please.
4.08 µM (inactive)

###

Test system: HCT-15
Protocol Summary: NCI tumour cell line growth inhibition, 48 h
Endpoint: GI50

// worked examples, GI50 included
{"Compound": "COC(=O)C1=C(OC(=O)/C(=C/c2ccccc2)c2ccc(OC)cc2)C(C(=O)OC)[C@@]2(O)[C@@H](C(=O)OC)[C@H](C)C[C@@H]1[C@@H]2C(=O)OC (stereo partly drawn)", "GI50": "> 100 µM"}
{"Compound": "O=C1OCC2=Nc3cccc4cccc(c34)N12", "GI50": "> 100 µM"}

Here is another compound to look at.
Lab note: need GI50 for C=CCc1oc(C)nc1CCCC on HCT-15, anyone have it?
> 100 µM

###

Below is a list of entries, each paired with its recorded GI50 value.
System: SNB-75
Protocol Summary: NCI tumour cell line growth inhibition, 48 h
Active and inactive are the calls of the source. No stated cut-off is given here; in the data, active = GI50 up to about 1.1 µM and inactive = higher.

// worked examples, GI50 included
{"Compound": "O=C(CC(=O)N1N=C(N(c2ccccc2)c2ccccc2)CC1c1ccccc1)Nc1ccccc1 (configuration not stated)", "GI50": "61.4 µM (inactive)"}
{"Compound": "CC(C)=CC(=O)Cc1nc2ccccc2[nH]c1=O", "GI50": "40.3 µM (inactive)"}
{"Compound": "O=[N+]([O-])c1ccc(COc2cccc3cccnc23)cc1", "GI50": "26.9 µM (inactive)"}
{"Compound": "CN(C)CCCNC(=O)N/N=C/c1ccc(O)cc1", "GI50": "59.2 µM (inactive)"}
{"Compound": "CO/C(=N\\N=C\\c1cc(OC)ccc1OC)c1ccncc1", "GI50": "3.68 µM (inactive)"}
{"Compound": "OC1(c2ccc(Cl)cc2)c2c(c3ccccc3c3ccccc23)C2=NCCN21 (configuration not stated)", "GI50": "2.91 µM (inactive)"}

Lab note: need GI50 for COc1ccc2ccccc2c1CN1CCOCCOCCN(Cc2c(OC)ccc3ccccc23)CCOCCOCC1 on SNB-75, anyone have it?
> 52.5 µM (inactive)

###

Below is a list of entries, each paired with its recorded GI50 value.
System: MDA-MB-231
Protocol Summary: NCI tumour cell line growth inhibition, 48 h
Activity calls are given as the source filed them. Rule as the data show it: active = GI50 up to about 1.1 µM and inactive = higher.

Please give the measured GI50 for this molecule: COc1ccc2c(c1)[n+]([O-])c(C#N)c(N1CCN(c3ccc([N+](=O)[O-])cc3)CC1)[n+]2[O-]
5.31 µM (inactive)

Same question for COc1ccc2[nH]c3c(C)c4cnccc4c(C)c3c2c1 please.
2.8 µM (inactive)

Same question for NS(=O)(=O)c1ccc(/C=C/c2ccc(F)cc2)cc1 please.
9.53 µM (inactive)

Same question for CC(=O)Oc1cccc2c1C(=O)c1c(OC(C)=O)cc(C)cc1C2=O please.
43 µM (inactive)

Same question for CCCCc1ccc(Nc2nc(N)c3ncn(COCCO)c3n2)cc1 please.
29 µM (inactive)

Same question for C=CCNC(NCC=C)=C(C(Cl)=C(Cl)Cl)[N+](=O)[O-] please.
> 100 µM (inactive)

Same question for NCCC1([N+](=O)[O-])CCNCC1 please.
> 100 µM (inactive)

Same question for NC(=O)c1cccc([C@@H]2O[C@H](CO)[C@@H](O)[C@H]2O)c1 please.
77.1 µM (inactive)

Same question for COc1ccc2cc3[n+](cc2c1OC)CCc1cc2c(cc1-3)OCO2 please.
21.5 µM (inactive)

Same question for O=C1NCC2(CCN(CCCC3(c4ccc(F)cc4)OCCO3)CC2)N1c1ccccc1 please.
> 100 µM (inactive)

Same question for Cc1cc(NS(=O)(=O)c2ccc(/N=[N+](\[O-])c3ccc(S(=O)(=O)Nc4cc(C)on4)cc3)cc2)no1 please.
> 100 µM (inactive)

Same question for Clc1ccc2oc(CCC3CCCCC3)nc2c1 please.
28.3 µM (inactive)

Sourced from ChEMBL document CHEMBL1201862
